Target chain: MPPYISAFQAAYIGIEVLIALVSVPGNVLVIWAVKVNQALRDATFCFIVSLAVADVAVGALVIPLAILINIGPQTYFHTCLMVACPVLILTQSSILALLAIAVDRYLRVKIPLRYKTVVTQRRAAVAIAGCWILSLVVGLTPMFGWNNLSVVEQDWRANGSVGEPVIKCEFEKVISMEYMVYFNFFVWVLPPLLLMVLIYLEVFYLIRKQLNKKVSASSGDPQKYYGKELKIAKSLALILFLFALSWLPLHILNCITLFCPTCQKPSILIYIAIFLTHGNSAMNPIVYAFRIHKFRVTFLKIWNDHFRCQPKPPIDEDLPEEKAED
Give measured RIA for each item. Keep answers brief.
Respond with the number and no other words.

The measured RIA associated with `OC[C@H]1O[C@@H](n2cnc3c(NC4CCCCCCC4)nc(Cl)nc32)C[C@@H]1O` reads 0

The compound listed as `OC[C@H]1O[C@@H](n2cnc3c(NC4CC4)ncnc32)C[C@@H]1O` shows RIA equal to 0

GET /value?item= `OC[C@H]1O[C@@H](n2cnc3c(NC4CCC4)ncnc32)C[C@@H]1O` &field=RIA returns 33.8

The compound identified as `OC[C@H]1O[C@@H](n2cnc3c(NC4CCCCCCC4)ncnc32)C[C@@H]1O` registered its RIA at 0

Looking up `OC[C@H]1O[C@@H](n2cnc3c(NC4CCCC4)ncnc32)C[C@@H]1O` , I found its RIA recorded as 42.1

Short answer for `OC[C@H]1O[C@@H](n2cnc3c(NC4CCCCCC4)nc(Cl)nc32)C[C@@H]1O` : RIA was 0
